Molecular target: CDK1/Cyclin E1 (Homo sapiens, UniProt P06493)
Sequence (P06493 whole entry): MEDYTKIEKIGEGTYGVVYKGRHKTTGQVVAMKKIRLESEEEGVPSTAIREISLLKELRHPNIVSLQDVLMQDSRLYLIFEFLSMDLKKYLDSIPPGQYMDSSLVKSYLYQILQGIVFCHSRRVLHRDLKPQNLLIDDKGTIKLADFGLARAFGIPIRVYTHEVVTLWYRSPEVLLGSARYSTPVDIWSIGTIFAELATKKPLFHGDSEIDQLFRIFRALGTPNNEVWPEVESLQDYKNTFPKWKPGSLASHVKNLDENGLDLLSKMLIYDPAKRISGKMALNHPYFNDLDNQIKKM
Sequence (P24864 whole entry partner): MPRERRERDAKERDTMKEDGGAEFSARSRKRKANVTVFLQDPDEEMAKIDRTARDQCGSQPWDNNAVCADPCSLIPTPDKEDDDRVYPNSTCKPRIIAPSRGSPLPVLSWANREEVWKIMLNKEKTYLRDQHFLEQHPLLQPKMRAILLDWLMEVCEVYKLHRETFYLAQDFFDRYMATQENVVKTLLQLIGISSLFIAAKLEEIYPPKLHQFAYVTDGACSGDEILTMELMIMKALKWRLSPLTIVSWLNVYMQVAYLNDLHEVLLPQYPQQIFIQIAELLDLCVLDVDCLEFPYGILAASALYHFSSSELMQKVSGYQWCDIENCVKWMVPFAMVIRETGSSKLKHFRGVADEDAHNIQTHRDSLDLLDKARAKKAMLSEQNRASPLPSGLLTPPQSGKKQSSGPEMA
Test: NanoBRET live-cell target engagement, CDK1-NanoLuc/Cyclin E1 in HEK-293
Format: binding
Details: CDK1/E1; experiment 3; read-out: IC50
endpoint: IC50
Number plus unit, in that order.

Form: item CC(C)c1cnn2c(NCc3ccccc3-n3cccn3)nc(OC3CCCNC3)nc12 (stereo not shown) ; test system CDK1/Cyclin E1 (Homo sapiens, UniProt P06493); IC50: 43 nM

* * *

Catalogue of Inhibition at 10µM (%) readings, one per entry.
Biological target: CDK9/Cyclin K (Homo sapiens, UniProt P50750)
Sequence (P50750 whole entry): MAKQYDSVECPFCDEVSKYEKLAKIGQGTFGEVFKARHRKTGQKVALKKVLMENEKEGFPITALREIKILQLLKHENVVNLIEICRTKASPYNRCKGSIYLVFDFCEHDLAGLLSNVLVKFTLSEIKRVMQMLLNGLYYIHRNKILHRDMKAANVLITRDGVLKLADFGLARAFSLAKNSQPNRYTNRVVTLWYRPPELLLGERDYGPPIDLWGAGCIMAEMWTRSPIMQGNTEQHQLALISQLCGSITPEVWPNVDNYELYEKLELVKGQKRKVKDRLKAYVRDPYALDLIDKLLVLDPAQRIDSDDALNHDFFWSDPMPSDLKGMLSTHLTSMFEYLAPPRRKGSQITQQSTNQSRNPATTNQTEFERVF
Sequence (O75909 whole entry partner): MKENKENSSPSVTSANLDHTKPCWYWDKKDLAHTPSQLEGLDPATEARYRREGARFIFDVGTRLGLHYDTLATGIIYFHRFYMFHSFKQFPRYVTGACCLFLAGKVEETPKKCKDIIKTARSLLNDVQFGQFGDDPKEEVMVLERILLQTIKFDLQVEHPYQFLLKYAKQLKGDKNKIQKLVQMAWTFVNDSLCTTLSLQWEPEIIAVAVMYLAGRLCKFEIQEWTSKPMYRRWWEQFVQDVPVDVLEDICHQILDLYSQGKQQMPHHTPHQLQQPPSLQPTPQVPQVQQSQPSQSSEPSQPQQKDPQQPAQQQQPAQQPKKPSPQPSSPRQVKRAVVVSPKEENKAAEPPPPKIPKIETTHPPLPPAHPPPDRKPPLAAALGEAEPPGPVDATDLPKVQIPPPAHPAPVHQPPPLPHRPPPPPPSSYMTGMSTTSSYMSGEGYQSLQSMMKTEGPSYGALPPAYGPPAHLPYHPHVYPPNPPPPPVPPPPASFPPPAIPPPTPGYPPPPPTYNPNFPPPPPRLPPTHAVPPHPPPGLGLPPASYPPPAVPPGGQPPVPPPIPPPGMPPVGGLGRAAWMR
Test: NanoBRET live-cell target engagement, NanoLuc-CDK9/Cyclin K in HEK-293
Type: binding
Conditions: CDK9/K; experiment 1
State just the number; it will be interpreted in %.

For this compound ( CC(C)c1c2cc(-c3ccnc(N[C@H]4CC[C@H](NC5CCOCC5)CC4)n3)ccc2nn1C ), measured Inhibition at 10µM (%) is 98.0

For this compound ( CN1CCC(c2c(O)cc(O)c3c(=O)cc(-c4ccccc4Cl)oc23)C1CO (stereo not shown) ), measured Inhibition at 10µM (%) is 94.9

For this compound ( CC(C)c1cnn2c(NCc3ccccc3-n3cccn3)nc(OC3CCCNC3)nc12 (stereo not shown) ), measured Inhibition at 10µM (%) is 42.8

For this compound ( CCn1cnc2c(Nc3cccc(Cl)c3)nc(N[C@@H]3CCCC[C@@H]3N)nc21 [CGP74514A] ), measured Inhibition at 10µM (%) is 68.0

* * *

Molecular target: CDK11B/Cyclin L2 (Homo sapiens)
Sequence (P21127 1-782 isoform P21127-2): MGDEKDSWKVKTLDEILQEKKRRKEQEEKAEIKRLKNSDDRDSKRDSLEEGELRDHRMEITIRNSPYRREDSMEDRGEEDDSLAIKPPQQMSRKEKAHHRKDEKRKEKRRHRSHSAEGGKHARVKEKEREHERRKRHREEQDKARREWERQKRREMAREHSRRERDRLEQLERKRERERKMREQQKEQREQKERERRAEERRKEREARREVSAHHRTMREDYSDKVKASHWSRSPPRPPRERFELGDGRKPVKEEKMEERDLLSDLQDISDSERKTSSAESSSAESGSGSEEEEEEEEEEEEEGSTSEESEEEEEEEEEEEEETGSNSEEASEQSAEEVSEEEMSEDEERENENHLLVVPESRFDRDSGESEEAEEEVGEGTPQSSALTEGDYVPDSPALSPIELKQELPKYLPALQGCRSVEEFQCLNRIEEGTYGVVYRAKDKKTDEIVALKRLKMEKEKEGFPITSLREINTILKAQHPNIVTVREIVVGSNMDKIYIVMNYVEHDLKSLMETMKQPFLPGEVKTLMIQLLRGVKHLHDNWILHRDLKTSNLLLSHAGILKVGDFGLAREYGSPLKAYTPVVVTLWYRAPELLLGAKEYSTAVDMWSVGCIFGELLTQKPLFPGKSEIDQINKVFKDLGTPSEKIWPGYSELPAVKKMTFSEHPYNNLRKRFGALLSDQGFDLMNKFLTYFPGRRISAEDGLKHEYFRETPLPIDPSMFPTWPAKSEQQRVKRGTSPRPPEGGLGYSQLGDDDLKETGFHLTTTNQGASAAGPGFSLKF
Assay: NanoBRET live-cell target engagement, CDK11B-NanoLuc/Cyclin L2 in HEK-293
Type: binding
Conditions: CDK11b/L2; 10µM; average of replicates; read-out: Inhibition at 10µM (%) Average
endpoint: inhibition at 10 µM
Number plus unit, in that order.

# example entries with known answers
# molecule, inhibition at 10 µM
records = [
    ("COc1cc(F)ccc1-c1ncnc(Nc2cccc(C[S@](C)(=N)=O)c2)n1", "7.4%"),
    ("CCCCOc1c(C(=O)c2c(F)cc(C)cc2F)c[nH]c2nncc1-2", "11.8%"),
    ("CCN1CCN(Cc2ccc(NC(=O)Nc3ccc(Oc4cc(NC)ncn4)cc3)cc2C(F)(F)F)CC1", "10.3%"),
    ("CCN1CCN(Cc2ccc(Nc3ncc(F)c(-c4cc(F)c5nc(C)n(C(C)C)c5c4)n3)nc2)CC1", "27.7%"),
    ("Cc1ncc(-c2ccnc(Nc3ccc(S(C)(=O)=O)cc3)n2)n1C(C)C", "70.1%"),
]

// next item, inhibition at 10 µM requested
For this molecule ( COc1cc(F)ccc1-c1cc(Nc2cc(CS(C)(=N)=O)ccn2)ncc1F (stereo not drawn) ), measured inhibition at 10 µM is 33.9%

* * *

Target: CDK6/Cyclin D1 (Homo sapiens, UniProt Q00534)
Sequence (Q00534 whole entry): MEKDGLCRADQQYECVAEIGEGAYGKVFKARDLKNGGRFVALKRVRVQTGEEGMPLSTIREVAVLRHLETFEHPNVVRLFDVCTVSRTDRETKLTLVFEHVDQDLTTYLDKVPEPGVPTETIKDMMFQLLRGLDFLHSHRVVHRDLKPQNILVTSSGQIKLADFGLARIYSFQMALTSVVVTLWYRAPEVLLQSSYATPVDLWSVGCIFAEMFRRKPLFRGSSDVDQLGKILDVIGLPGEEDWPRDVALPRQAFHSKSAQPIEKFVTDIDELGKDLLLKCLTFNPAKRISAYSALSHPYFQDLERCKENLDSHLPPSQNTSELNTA
Sequence (P24385 whole entry partner): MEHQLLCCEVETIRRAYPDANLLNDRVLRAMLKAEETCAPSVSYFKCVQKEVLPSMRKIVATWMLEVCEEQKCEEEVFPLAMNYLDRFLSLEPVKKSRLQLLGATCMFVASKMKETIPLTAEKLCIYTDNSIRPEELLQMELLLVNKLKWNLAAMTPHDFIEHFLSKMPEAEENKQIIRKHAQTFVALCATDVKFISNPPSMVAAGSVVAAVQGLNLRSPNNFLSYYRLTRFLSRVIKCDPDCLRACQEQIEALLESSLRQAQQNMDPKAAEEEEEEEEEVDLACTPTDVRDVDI
Test: NanoBRET live-cell target engagement, NanoLuc-CDK6/Cyclin D1 in HEK-293
Format: binding
Settings: CDK6/D1; experiment 2; read-out: Inhibition at 10µM (%)
endpoint: inhibition at 10 µM (%)
State just the number; it will be interpreted in %.

# compound, inhibition at 10 µM (%)
data = [
    ("Cn1cc(-c2ccc(-c3cncc(Cl)c3N3CCC4(CCNC4=O)CC3)cc2)cn1", 1.5),
    ("CN1CCN(c2ccc(Nc3ncc4cc(C#N)c(=O)n(C5CCCC5)c4n3)cc2)CC1", 98.5),
    ("COc1ccccc1-c1cc(Nc2cccc(CS(N)(=O)=O)c2)ncn1", 45.4),
    ("CN1CCN(Cc2ccc(NC(=O)Nc3ccc(Oc4ccnc(N)n4)cc3)cc2C(F)(F)F)CC1", 46.5),
]

For this compound ( N#CCNC(=O)c1ccc(-c2ccnc(Nc3ccc(N4CCOCC4)cc3)n2)cc1 ), measured inhibition at 10 µM is 51.1

For this compound ( CC(C)c1cnn2c(NCc3ccccc3)cc(NC[C@H]3CCNC[C@@H]3O)nc12 ), measured inhibition at 10 µM is 5.6

For this compound ( COC1CN(C(=O)c2ccc3c(N)ncc(-c4ccc(-c5cnn(C)c5)cc4)c3n2)C1 ), measured inhibition at 10 µM is 20.8

For this compound ( CC(C)N1CCN(c2ccc(Nc3ncc4cc5n(c4n3)C3(CCCCC3)CNC5=O)nc2)CC1 ), measured inhibition at 10 µM is 101

For this compound ( CNC(=O)c1nn(C)c2c1C(C)(C)Cc1cnc(Nc3ccc(N4CCN(C)CC4)cc3)nc1-2 ), measured inhibition at 10 µM is 96.5

For this compound ( CN1CC[C@H](c2c(O)cc(O)c3c(=O)cc(-c4ccccc4Cl)oc23)[C@H](O)C1 ), measured inhibition at 10 µM is 89.9

For this compound ( COc1ccc(F)cc1-c1cc(NC(=O)C2CCCNC2)ncc1Cl (centres unmarked) ), measured inhibition at 10 µM is 78
